biological target: human BACE-1 (Homo sapiens); assay: Test 1: Inhibition of human BACE-1; details: recombinant BACE-1, pH 4.5, fluorescence-quenched APP-derived peptide substrate
Sequence (P56817 46-457 limits assumed): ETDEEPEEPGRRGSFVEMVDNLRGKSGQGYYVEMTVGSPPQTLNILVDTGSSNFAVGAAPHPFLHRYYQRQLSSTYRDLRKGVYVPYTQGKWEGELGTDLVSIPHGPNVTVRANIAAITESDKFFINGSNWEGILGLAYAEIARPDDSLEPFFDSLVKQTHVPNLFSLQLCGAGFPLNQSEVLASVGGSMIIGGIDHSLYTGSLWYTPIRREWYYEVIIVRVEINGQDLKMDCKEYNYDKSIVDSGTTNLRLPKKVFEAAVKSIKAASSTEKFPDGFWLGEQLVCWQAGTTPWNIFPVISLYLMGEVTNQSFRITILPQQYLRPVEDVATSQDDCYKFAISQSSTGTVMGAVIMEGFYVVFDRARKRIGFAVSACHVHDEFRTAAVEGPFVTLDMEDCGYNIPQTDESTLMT
Structures can show the parent of a compound that is named as a salt.
measured-parameter: log10(IC50) (log10 of the value in nM)
Recorded IC50 (log10, nM)

Consider the worked cases shown below.
>  <molecule>
NC1=N[C@@](c2cc(NC(=O)c3ncc(=O)[nH]c3N)ccc2F)(C(F)F)CNC1

>  <measured-on>
human BACE-1 (Homo sapiens)

>  <recorded-result>
2.34

$$$$
>  <molecule>
CC(=O)N1CC(N)=NC(c2cc(NC(=O)c3ncc(Br)cc3C)ccc2F)(C(F)F)C1 (centres unmarked)

>  <measured-on>
human BACE-1 (Homo sapiens)

>  <recorded-result>
0.95

$$$$
>  <molecule>
CN1CC(C)(c2cc(NC(=O)c3ccc(Br)cn3)ccc2F)N=C(N)C1=O (centres unmarked) [Example 4, hydrochloride]

>  <measured-on>
human BACE-1 (Homo sapiens)

>  <recorded-result>
1.98

$$$$
>  <molecule>
NC1=NC(c2cc(NC(=O)c3ccc(Br)cn3)ccc2F)(C(F)F)CNC1 (centres unmarked)

>  <measured-on>
human BACE-1 (Homo sapiens)

>  <recorded-result>
1.48

$$$$

Okay, next one:
For the molecule Cc1cc(OC(F)F)cnc1C(=O)Nc1ccc(F)c([C@]2(C(F)F)CNCC(N)=N2)c1 (single isomer, unassigned) , what log10(IC50) is on record?
1.34
